target: Peroxisome proliferator-activated receptor alpha (Mus musculus); test: Agonist activity for murine PPAR alpha receptor in transcriptional activation assay;IA means inactive at 10 uM; assay type: functional

| Compound | Tgt | EC50 |
| --- | --- | --- |
| COC(=O)c1ccccc1N[C@@H](Cc1ccc(OCCc2nc(-c3ccccc3)oc2C)cc1)C(=O)O [GW7845] | Peroxisome proliferator-activated receptor alpha (Mus musculus) | Not Active |
| Cc1oc(-c2ccccc2)nc1CCOc1ccc(C[C@H](Nc2ccccc2C(=O)c2ccccc2)C(=O)O)cc1 [FARGLITAZAR] | Peroxisome proliferator-activated receptor alpha (Mus musculus) | Not Active |
| CN(CCOc1ccc(C[C@H](Nc2ccccc2C(=O)c2ccccc2)C(=O)O)cc1)c1ccccn1 | Peroxisome proliferator-activated receptor alpha (Mus musculus) | Not Active |
| CCCc1c(OCCCOc2ccc(OCC(=O)O)cc2)ccc(C(C)=O)c1O | Peroxisome proliferator-activated receptor alpha (Mus musculus) | Not Active |

---

Please respond with reported EC50 for every item in the list.
Express it in µM; write the number only.

Item: CCOC(=O)C(C)(C)Oc1ccc(Cl)cc1 [CLOFIBRATE] Test system: Peroxisome proliferator-activated receptor alpha (Homo sapiens, UniProt Q07869) Read-out: EC50 Value: ?
55

What value of EC50 on Peroxisome proliferator-activated receptor alpha (Homo sapiens, UniProt Q07869) does CCCc1c(OCCCOc2ccc(OCC(=O)O)cc2)ccc(C(C)=O)c1O have?
10

Give Peroxisome proliferator-activated receptor alpha (Homo sapiens, UniProt Q07869) EC50 for CCCc1c(OCCCSc2ccc(CC(=O)O)cc2Cl)ccc2c(-c3ccccc3)coc12
0.0041

Please tell me: EC50 of Cc1oc(-c2ccccc2)nc1CCOc1ccc(CC2C(=O)NOC2=O)cc1 (stereo unspecified) , system Peroxisome proliferator-activated receptor alpha (Homo sapiens, UniProt Q07869)?
1.9

Give Peroxisome proliferator-activated receptor alpha (Homo sapiens, UniProt Q07869) EC50 for CC(C)(Oc1ccc(CCCN(CCc2c(F)cccc2Cl)C(=O)Nc2cccc(Cl)c2Cl)cc1)C(=O)O
0.17

Please tell me: EC50 of CCOC(Cc1ccc(OCCN(C)c2nc3ccccc3o2)cc1)C(=O)O (stereo unspecified) , system Peroxisome proliferator-activated receptor alpha (Homo sapiens, UniProt Q07869)?
0.74

---

Biological target: Peroxisome proliferator-activated receptor gamma (Mus musculus, UniProt P37238)
Sequence (P37238 whole entry): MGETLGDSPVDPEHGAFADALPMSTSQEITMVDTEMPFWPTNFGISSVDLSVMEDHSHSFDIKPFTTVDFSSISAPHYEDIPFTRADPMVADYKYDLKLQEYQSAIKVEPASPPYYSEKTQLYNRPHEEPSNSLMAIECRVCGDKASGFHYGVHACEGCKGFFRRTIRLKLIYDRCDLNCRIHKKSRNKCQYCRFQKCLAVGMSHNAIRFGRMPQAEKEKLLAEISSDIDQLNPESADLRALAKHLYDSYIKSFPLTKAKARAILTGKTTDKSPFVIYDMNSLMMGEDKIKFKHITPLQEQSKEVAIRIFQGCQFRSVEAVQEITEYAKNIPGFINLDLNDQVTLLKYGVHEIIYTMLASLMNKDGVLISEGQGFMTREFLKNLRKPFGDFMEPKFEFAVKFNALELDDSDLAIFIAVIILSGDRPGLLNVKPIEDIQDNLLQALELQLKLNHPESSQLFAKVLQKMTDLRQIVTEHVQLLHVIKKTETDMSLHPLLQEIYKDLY
Threshold 100 nM: EC50 strictly smaller gives Yes, otherwise No.

Please determine if CCCc1c(OCCCSc2ccc(CC(=O)O)cc2Cl)ccc2c(-c3ccccc3)coc12 [L-796449] is below 100 nM in terms of EC50.
Yes

Threshold test, EC50 < 100 nM: COc1ccc(CCc2c(-c3ccccc3)[nH]c3ccc(CC(=O)O)cc23)cc1
No

Quick check: EC50 of CCCc1c(OCCCOc2ccc(OCC(=O)O)cc2)ccc(C(C)=O)c1O under 100 nM?
No

Field: below-cutoff. Rule: recorded EC50 strictly less than 100 nM. Subject: Cc1oc(-c2ccccc2)nc1CCOc1ccc(CC2C(=O)NOC2=O)cc1 (configuration not stated) [REGLITAZAR]
Yes

Does this compound meet the criterion EC50 < 100 nM? CN(CCOc1ccc(C[C@H](Nc2ccccc2C(=O)c2ccccc2)C(=O)O)cc1)c1ccccn1
Yes

API: query returns whether the compound falls strictly under 100 nM in EC50. Query: Cc1cccc(Nc2cc(Cl)nc(SCC(=O)O)n2)c1C [PIRINIXIC ACID]
No

Threshold test, EC50 < 100 nM: CC(C)(Oc1ccc(CCCN(CCc2c(F)cccc2Cl)C(=O)Nc2cccc(Cl)c2Cl)cc1)C(=O)O
No

---

molecular target: Peroxisome proliferator-activated receptor delta (Mus musculus); experiment: Agonist activity for murine PPAR delta receptor in transcriptional activation assay; format: functional
Sequence (P35396 whole entry): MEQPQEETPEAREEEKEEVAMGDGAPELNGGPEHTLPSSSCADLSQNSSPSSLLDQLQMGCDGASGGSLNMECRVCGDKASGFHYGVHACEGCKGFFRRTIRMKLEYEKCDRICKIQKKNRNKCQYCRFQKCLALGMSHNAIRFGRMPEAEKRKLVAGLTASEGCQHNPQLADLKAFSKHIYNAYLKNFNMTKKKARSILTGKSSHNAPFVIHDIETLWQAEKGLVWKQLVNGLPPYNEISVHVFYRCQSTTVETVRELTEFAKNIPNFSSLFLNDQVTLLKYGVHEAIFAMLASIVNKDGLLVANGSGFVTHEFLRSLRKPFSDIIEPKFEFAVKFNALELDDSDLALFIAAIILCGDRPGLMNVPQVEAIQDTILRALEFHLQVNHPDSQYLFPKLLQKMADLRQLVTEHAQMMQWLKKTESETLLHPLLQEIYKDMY
Metric Name: EC50 (µM)
Just the number in µM, nothing appended.

So what's the measured EC50 for this one? COc1ccc(CC2SC(=O)NC2=O)cc1C(=O)NCc1ccc(C(F)(F)F)cc1 (centres undefined)
7.2

Value lookup for EC50; key = CC(C)(Oc1ccc(CCCN(CCc2c(F)cccc2Cl)C(=O)Nc2cccc(Cl)c2Cl)cc1)C(=O)O
0.41

Can you share its EC50? I mean this compound: CCCc1c(OCCCSc2ccc(CC(=O)O)cc2Cl)ccc2c(-c3ccccc3)coc12
0.023

Any idea what its EC50 is? The compound is CCCc1c(OCCCOc2ccc(OCC(=O)O)cc2)ccc(C(C)=O)c1O
3.8

---

For each record, write down the corresponding pEC50.
Please report pEC50 as the negative decimal logarithm of the molar concentration, giving only the number.

// map COc1ccc(CC2SC(=O)NC2=O)cc1C(=O)NCc1ccc(C(F)(F)F)cc1 (configuration not stated) to recorded pEC50 (system: Peroxisome proliferator-activated receptor delta (Homo sapiens))
Sequence (Q03181 whole entry): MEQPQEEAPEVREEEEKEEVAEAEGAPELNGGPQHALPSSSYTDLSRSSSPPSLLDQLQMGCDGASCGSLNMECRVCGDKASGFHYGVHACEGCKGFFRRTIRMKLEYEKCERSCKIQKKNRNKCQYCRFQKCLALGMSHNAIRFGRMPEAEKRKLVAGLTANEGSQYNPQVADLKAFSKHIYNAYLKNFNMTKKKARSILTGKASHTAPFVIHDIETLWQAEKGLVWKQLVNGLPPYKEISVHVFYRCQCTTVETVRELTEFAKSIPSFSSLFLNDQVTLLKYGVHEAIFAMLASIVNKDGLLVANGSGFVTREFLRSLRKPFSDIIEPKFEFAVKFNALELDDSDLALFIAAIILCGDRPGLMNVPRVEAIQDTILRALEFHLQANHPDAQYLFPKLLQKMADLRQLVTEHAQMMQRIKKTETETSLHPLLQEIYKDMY
5.04

Give recorded pEC50 with Peroxisome proliferator-activated receptor delta (Homo sapiens) for the following molecule: CCCc1c(OCCCOc2ccc(OCC(=O)O)cc2)ccc(C(C)=O)c1O
6.28

---

molecular target: Peroxisome proliferator-activated receptor alpha (Mus musculus, UniProt P23204); assay type: functional
Sequence (P23204 whole entry): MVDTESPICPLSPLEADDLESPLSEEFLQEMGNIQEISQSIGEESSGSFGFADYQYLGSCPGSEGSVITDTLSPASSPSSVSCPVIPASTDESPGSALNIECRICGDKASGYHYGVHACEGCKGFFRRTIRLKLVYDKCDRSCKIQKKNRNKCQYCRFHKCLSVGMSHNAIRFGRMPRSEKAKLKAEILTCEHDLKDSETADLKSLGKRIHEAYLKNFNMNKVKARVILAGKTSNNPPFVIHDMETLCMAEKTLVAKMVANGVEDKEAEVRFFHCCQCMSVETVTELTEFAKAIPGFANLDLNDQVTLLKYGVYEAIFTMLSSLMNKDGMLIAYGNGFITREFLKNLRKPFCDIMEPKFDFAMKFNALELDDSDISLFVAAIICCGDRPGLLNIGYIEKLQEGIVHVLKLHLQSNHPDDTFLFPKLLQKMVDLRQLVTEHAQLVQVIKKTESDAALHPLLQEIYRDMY
Field: pEC50. Provide a value for each of the molecules that follow.
The scale used: pEC50 is minus the common logarithm of the concentration in molar units.

# returns recorded pEC50 (system: Peroxisome proliferator-activated receptor alpha (Mus musculus, UniProt P23204)) for CCOC(=O)C(C)(C)Oc1ccc(Cl)cc1 [CLOFIBRATE]
4.30

What pEC50 appears in the records for this molecule with Peroxisome proliferator-activated receptor alpha (Mus musculus, UniProt P23204)? CCCc1c(OCCCSc2ccc(CC(=O)O)cc2Cl)ccc2c(-c3ccccc3)coc12 [L-796449]
5.12

Form field: pEC50 recorded for Cc1oc(-c2ccccc2)nc1CCOc1ccc(CC2C(=O)NOC2=O)cc1 (stereo unspecified) [REGLITAZAR] with Peroxisome proliferator-activated receptor alpha (Mus musculus, UniProt P23204) (enter value)
5.37

Identify the measured pEC50 of COc1ccc(CC2SC(=O)NC2=O)cc1C(=O)NCc1ccc(C(F)(F)F)cc1 (stereo unspecified) for Peroxisome proliferator-activated receptor alpha (Mus musculus, UniProt P23204).
5.00

# query: pEC50 | item CCOC(Cc1ccc(OCCN(C)c2nc3ccccc3o2)cc1)C(=O)O (stereo unspecified) | system: Peroxisome proliferator-activated receptor alpha (Mus musculus, UniProt P23204)
6.03

Given the entry CC(C)(Oc1ccc(CCCN(CCc2c(F)cccc2Cl)C(=O)Nc2cccc(Cl)c2Cl)cc1)C(=O)O , what pEC50 was observed with Peroxisome proliferator-activated receptor alpha (Mus musculus, UniProt P23204)?
6.57
